Give measured pIC50 for each item. Keep answers brief.
Molecular target: Prostaglandin E2 receptor EP1 subtype (Homo sapiens)
Sequence (P34995 whole entry): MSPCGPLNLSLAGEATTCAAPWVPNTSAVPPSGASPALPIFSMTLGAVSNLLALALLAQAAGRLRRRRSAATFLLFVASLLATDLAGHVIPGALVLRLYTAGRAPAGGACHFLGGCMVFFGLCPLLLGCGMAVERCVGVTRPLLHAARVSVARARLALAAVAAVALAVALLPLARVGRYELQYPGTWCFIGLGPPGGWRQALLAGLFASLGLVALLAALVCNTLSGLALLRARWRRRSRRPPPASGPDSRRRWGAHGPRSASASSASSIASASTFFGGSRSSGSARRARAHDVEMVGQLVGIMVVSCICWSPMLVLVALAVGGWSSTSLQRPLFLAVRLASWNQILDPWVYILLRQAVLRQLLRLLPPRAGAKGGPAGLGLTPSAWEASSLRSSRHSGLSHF
Test: Antagonist activity at human EP1 receptor by reporter gene assay
// pIC50 here means minus log10 of the molar concentration (mol/L)

Would you mind telling me what pIC50 value was observed for "Cc1c(-c2ccccc2)nn(-c2nc(C(=O)O)cs2)c1C(F)(F)F" ? 7.08

Another: "COc1ccc(-c2cc(C(F)(F)F)n(-c3nc(C(=O)O)cs3)n2)cc1" 6.37

Also "O=C(O)c1csc(-n2nc(-c3cccc(O)c3)cc2C(F)(F)F)n1" , if possible. 6.24

Try this compound too: "Cc1ccc(-c2cc(C(F)(F)F)n(-c3nc(C(=O)O)cs3)n2)cc1" 5.52

* * *

Biological target: Cytochrome P450 2C19 (Homo sapiens)
Sequence (P33261 whole entry): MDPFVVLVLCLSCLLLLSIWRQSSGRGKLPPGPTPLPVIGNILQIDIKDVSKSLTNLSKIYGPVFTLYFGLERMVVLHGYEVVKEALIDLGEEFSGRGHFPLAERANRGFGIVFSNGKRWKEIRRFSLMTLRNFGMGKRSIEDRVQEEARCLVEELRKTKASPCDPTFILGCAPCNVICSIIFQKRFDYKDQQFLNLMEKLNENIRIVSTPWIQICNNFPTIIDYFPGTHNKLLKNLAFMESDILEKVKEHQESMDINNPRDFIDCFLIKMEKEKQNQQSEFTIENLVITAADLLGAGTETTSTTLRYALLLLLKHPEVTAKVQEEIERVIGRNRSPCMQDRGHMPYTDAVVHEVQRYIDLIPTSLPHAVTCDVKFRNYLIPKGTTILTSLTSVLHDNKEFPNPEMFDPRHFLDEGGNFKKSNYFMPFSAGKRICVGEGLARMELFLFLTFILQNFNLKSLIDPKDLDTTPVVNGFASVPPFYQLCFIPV
Assay: Inhibition of CYP2C19 (unknown origin)
Format: ADME
Kindly supply the reported IC50 values for the records listed here.
API: value field is a number in µM; no unit string.

// lookup IC50 for "COc1ccc(-c2cc(C(F)(F)F)nn2-c2nc(C(=O)O)cs2)cc1" 7.14

Likewise for "Cc1c(-c2ccccc2)nn(-c2nc(C(=O)O)cs2)c1-c1ccccc1" ? 4.71

* * *

Target sequence: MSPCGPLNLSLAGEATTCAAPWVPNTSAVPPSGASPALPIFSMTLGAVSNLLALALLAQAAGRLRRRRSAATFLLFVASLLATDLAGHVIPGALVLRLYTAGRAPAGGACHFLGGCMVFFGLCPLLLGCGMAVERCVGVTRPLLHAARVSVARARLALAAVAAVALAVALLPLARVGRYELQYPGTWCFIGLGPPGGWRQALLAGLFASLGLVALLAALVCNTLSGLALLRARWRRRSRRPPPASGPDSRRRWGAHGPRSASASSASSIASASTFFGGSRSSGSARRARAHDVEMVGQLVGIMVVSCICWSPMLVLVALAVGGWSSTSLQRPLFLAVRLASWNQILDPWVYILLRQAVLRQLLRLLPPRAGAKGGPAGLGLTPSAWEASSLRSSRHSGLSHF
attribute measured: pKi
Note on units: pKi is unitless, being -log10 of a concentration expressed in mol/L.

GET /values?readout=pKi&item= "COc1ccc(-c2cc(C(F)(F)F)nn2-c2nc(C(=O)O)cs2)cc1" 5.06

* * *

Biological target: Prostaglandin E2 receptor EP4 subtype (Homo sapiens, UniProt P35408)
Sequence (P35408 whole entry): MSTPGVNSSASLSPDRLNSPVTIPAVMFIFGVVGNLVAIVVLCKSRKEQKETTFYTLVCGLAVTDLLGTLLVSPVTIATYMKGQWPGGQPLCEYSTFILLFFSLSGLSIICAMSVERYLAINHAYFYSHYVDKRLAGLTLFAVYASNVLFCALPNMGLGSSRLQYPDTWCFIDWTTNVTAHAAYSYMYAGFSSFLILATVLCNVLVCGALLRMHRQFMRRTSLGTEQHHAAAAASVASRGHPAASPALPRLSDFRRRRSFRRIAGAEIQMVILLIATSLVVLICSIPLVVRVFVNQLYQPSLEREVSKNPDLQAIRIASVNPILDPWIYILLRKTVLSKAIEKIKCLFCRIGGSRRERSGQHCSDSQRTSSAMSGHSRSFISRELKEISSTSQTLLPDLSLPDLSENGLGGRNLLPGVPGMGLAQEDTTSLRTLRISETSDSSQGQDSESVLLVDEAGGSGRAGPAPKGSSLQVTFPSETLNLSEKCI
pIC50: −log10 of the molar value.
attribute measured: pIC50

Item under review: "COc1ccc(-c2cc(C(F)(F)F)nn2-c2nc(C(=O)O)cs2)cc1" . Reported pIC50? < 5.57

* * *

Biological target: Cytochrome P450 1A2 (Homo sapiens, UniProt P05177)
Sequence (P05177 whole entry): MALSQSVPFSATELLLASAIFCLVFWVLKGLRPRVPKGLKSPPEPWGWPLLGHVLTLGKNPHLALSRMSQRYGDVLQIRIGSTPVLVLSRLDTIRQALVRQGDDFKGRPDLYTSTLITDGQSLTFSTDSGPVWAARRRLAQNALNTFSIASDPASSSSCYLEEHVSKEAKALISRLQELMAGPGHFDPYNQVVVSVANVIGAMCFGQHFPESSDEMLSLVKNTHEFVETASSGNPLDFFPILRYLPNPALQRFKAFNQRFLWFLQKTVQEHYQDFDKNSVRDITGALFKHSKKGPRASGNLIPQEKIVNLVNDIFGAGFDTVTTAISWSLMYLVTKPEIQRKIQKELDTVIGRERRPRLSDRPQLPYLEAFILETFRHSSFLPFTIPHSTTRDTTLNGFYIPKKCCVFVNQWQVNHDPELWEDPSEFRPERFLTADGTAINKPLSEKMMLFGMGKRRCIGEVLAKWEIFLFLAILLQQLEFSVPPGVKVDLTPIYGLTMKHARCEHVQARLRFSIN
Assay: Inhibition of CYP1A2 (unknown origin)
Assay type: ADME
attribute measured: IC50

Request body: readout IC50, system Cytochrome P450 1A2 (Homo sapiens, UniProt P05177), query "Cc1c(-c2ccccc2)nn(-c2nc(C(=O)O)cs2)c1-c1ccccc1" . Return the value. 7.93 µM

Continue with "O=C(O)c1csc(-n2nc(-c3ccccc3O)cc2C(F)(F)F)n1" > 10 µM

"COc1ccc(-c2cc(C(F)(F)F)nn2-c2nc(C(=O)O)cs2)cc1" ? > 10 µM

Same question for "O=C(O)c1csc(-n2nc(-c3ccccc3)cc2C(F)(F)F)n1" please. > 10 µM

* * *

Hi there, I'd appreciate the recorded Papp A→B for every entry that follows.
Experiment: Apparent permeability from apical to basolateral side in MDCK cells
Format: ADME, cell-based, Canis lupus familiaris
Conditions: dog
Report the value in ×10⁻⁶ cm/s with no unit label.

Return reported Papp A→B; argument: "Cc1c(-c2ccccc2)nn(-c2nc(C(=O)O)cs2)c1-c1ccccc1" 51.6

Thanks! And "O=C(O)c1csc(-n2nc(-c3ccccc3O)cc2C(F)(F)F)n1" ? 22.8

* * *

Target: UniProt P34995
Assay: Antagonist activity at human EP1 receptor by intracellular Ca2+ release assay
Type: functional, cell-based
attribute measured: IC50 (nM)
Enter your answer as a number in nM; do not include the unit.

What measured IC50 goes with "O=C(O)c1csc(-n2nc(-c3ccccc3O)cc2C(F)(F)F)n1" ? 800

For "Cc1c(-c2ccccc2)nn(-c2nc(C(=O)O)cs2)c1-c1ccccc1" then? 500

Let us now turn to "COc1ccc(-c2cc(C(F)(F)F)nn2-c2nc(C(=O)O)cs2)cc1" 5800

* * *

Experiment: Intrinsic clearance in rat […] by LC/MS/MS analysis
Assay type: ADME, cell-free
attribute measured: CLint scaled (mL/min/kg)
The response must be a number in mL/min/kg with no trailing unit.

Sample "Cc1c(-c2ccccc2)nn(-c2nc(C(=O)O)cs2)c1-c1ccccc1" — what was its CLint scaled? 15

Then this compound: "O=C(O)c1csc(-n2nc(-c3ccccc3O)cc2C(F)(F)F)n1" 130

Again, but for "COc1ccc(-c2cc(C(F)(F)F)nn2-c2nc(C(=O)O)cs2)cc1" 195

* * *

Assay: Intrinsic clearance in human […] by LC/MS/MS analysis
Type: ADME, cell-free
Answer each item with its documented CLint scaled.
Give the value in mL/min/kg but do not write mL/min/kg after it.

State the recorded CLint scaled for this entry: "O=C(O)c1csc(-n2nc(-c3ccccc3)cc2C(F)(F)F)n1" 28

Please give the result for "COc1ccc(-c2cc(C(F)(F)F)nn2-c2nc(C(=O)O)cs2)cc1" too. 187

Again, but for "Cc1c(-c2ccccc2)nn(-c2nc(C(=O)O)cs2)c1-c1ccccc1" 35

Can you handle "O=C(O)c1csc(-n2nc(-c3ccccc3O)cc2C(F)(F)F)n1" next? 500

* * *

Target: Prostaglandin E2 receptor EP1 subtype (Homo sapiens) (UniProt P34995)
Assay: Antagonist activity at human EP1 receptor at 1.1 uM by reporter gene assay
attribute measured: inhibition (%)
Please give a number only; it is taken to be in %.

Entry "O=C(O)c1csc(-n2nc(-c3ccccc3)cc2-c2ccccc2)n1" : reported inhibition = ? 31

Entry "CC(C)(C)c1cc(-c2ccccc2)nn1-c1nc(C(=O)O)cs1" please 1

Please answer likewise for "Cc1c(-c2ccccc2)nc(-c2nc(C(=O)O)cs2)n1-c1ccccc1" 7

Also check "Cc1cc(-c2ccccc2)nn1-c1nc(C(=O)O)cs1" 14

* * *

Target: Prostaglandin E2 receptor EP1 subtype (Homo sapiens, UniProt P34995)
Sequence (P34995 whole entry): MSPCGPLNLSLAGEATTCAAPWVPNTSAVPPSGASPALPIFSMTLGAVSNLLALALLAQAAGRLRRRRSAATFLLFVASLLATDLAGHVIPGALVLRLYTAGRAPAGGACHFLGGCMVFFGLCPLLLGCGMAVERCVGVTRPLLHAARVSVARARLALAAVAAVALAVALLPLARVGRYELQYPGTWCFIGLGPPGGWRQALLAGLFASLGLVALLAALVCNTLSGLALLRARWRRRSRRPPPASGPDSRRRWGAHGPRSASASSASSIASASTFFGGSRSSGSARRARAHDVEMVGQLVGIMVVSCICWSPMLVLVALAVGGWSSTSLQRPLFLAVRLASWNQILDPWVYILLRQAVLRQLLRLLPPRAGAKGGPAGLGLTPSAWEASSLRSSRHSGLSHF
Assay: Antagonist activity at human EP1 receptor by reporter gene assay
Exercise: for every item that follows, state its recorded pIC50.
Scale: negative log10 of molar concentration, which is what pIC50 denotes.

Name the recorded pIC50 for "Cc1c(-c2ccccc2)nn(-c2nc(C(=O)O)cs2)c1-c1ccccc1" . 7.30

Then this compound: "Cn1c(-c2ccccc2)nc(-c2nc(C(=O)O)cs2)c1-c1ccccc1" 6.30

Moving on to "O=C(O)c1csc(-n2nc(-c3ccccc3O)cc2C(F)(F)F)n1" 6.74

How about this compound: "O=C(O)c1csc(-n2nc(-c3ccc(O)cc3)cc2C(F)(F)F)n1" 6.49

For "COc1ccc(-c2cc(C(F)(F)F)nn2-c2nc(C(=O)O)cs2)cc1" then? 6.00

Follow-up item: "O=C(O)c1csc(-n2nc(-c3ccccc3)cc2C(F)(F)F)n1" 6.49
